Target Of Assay: CDK2-cycline E (Homo sapiens, UniProt P24941)
Measurement Description: Kinase assay (radioactive phosphate incorporation), CDK2-cyclin E
Assay type: biochemical
Study Conditions: read-out: Kinase Inhibition pIC50 CDK2-cycline E (converted)
Parameter: IC50 (nM)

Answered examples (4):
Cc1nc(C)c(-c2ccnc(Nc3ccc(N4CC(C)OC(C)C4)cc3)n2)s1 (stereo not drawn)
5010
COc1cc(Nc2nccc(-c3sc(C)nc3C)n2)ccc1N1CCOCC1
794
COCCNc1nc(C)c(-c2ccnc(Nc3ccc(N4CCOCC4)cc3)n2)s1
251
Cc1nc(C)c(-c2ccnc(Nc3cccc(CN)c3)n2)s1
398

1: CNc1nc(C)c(-c2ccnc(Nc3cc(CO)cc(CO)c3)n2)s1
2: COc1cc(Nc2nccc(-c3sc(CO)nc3C)n2)ccc1N1CCOCC1
3: Cc1nc(N)sc1-c1ccnc(Nc2ccc(S(=O)(=O)NCc3ccccc3)cc2)n1
List by increasing IC50. // list labels; follow requested order 3, 1, 2

A: CCNc1nc(C)c(-c2ccnc(Nc3cccc(CC(=O)OCCOC)c3)n2)s1
B: CCNc1nc(C)c(-c2ccnc(Nc3ccc(S(C)(=O)=O)cc3)n2)s1
Of A and B , whose reported IC50 is numerically smaller? // caller expects the label of the chosen entry B
(B: 50.1 nM, A: 2510 nM)

---

Target Of Assay: CDK2-cycline E (Homo sapiens, UniProt P24941)
Measurement Description: Kinase assay (radioactive phosphate incorporation), CDK2-cyclin E
Assay type: biochemical
Study Conditions: read-out: Kinase Inhibition pIC50 CDK2-cycline E (converted)
Parameter: IC50 (nM)

Answered examples (3):
CCNS(=O)(=O)c1cccc(Nc2nccc(-c3sc(NC)nc3C)n2)c1
251
CCNS(=O)(=O)c1ccc(Nc2nccc(-c3sc(C)nc3C)n2)cc1
63.1
CCN(C)c1nc(C)c(-c2ccnc(Nc3ccc(N4CCOCC4)cc3)n2)s1
794

1: Cc1nc(NC(C)(C)C)sc1-c1ccnc(Nc2cccc([N+](=O)[O-])c2)n1
2: Cc1nc(C)c(-c2ccnc(Nc3ccc(N4CCSCC4)cc3)n2)s1
Between 1 and 2 , whose recorded IC50 is greater? // caller expects the label of the chosen entry 2
(2: 5010 nM, 1: 631 nM)

I: CNc1nc(C)c(-c2ccnc(Nc3cccc(S(=O)(=O)NC(C)=O)c3)n2)s1
II: Cc1nc(C)c(-c2ccnc(Nc3ccc(C)c(S(=O)(=O)N4CCOCC4)c3)n2)s1
Of I and II , whose reported IC50 is numerically smaller? // caller expects the label of the chosen entry I

a: CC(=O)NCc1ccc(Nc2nccc(-c3sc(C)nc3C)n2)cc1
b: Cc1nc(CO)sc1-c1ccnc(Nc2ccc(N3CCOCC3)cc2)n1
Between a and b , whose recorded IC50 is greater? // caller expects the label of the chosen entry b
(b: 1580 nM, a: 200 nM)

---

Target Of Assay: Aurora A kinase (Homo sapiens, UniProt O14965)
Construct: purchased
Measurement Description: Aurora-A (human) kinase assay (Kemptide substrate)
Type: biochemical
Study Conditions: pIC50 is -log(IC50, M); 15 μM ATP; read-out: Kinase Inhibition pIC50 Aurora A kinase (converted)
Parameter: IC50 (µM)

Cc1nc(NC(C)(C)C)sc1-c1ccnc(Nc2cccc([N+](=O)[O-])c2)n1
0.1
CC(=O)NCc1cccc(Nc2nccc(-c3sc(-c4ncc(C(F)(F)F)cc4Cl)nc3C)n2)c1
0.631
Cc1nc(NC(C)(C)C)sc1-c1ccnc(Nc2ccc(N3CCOCC3)cc2)n1
0.0501
CCNc1nc(C)c(-c2ccnc(Nc3cccc(S(=O)(=O)NC)c3)n2)s1
0.0631
CNc1nc(C)c(-c2ccnc(Nc3cccc(S(C)(=O)=O)c3)n2)s1
0.316

a: CCNS(=O)(=O)c1cccc(Nc2nccc(-c3sc(N)nc3C)n2)c1
b: CCNS(=O)(=O)c1cccc(Nc2nccc(-c3sc(NC)nc3C)n2)c1
Of a and b , whose reported IC50 is numerically smaller? // caller expects the label of the chosen entry a

---

Each entry below carries its measured IC50, system: protein kinases (panel of Table 4) (Homo sapiens).
Parameter: IC50 (nM)

CCNc1nc(C)c(-c2ccnc(Nc3ccc(N4CCNCC4)cc3)n2)s1
90

1: CNc1nc(C)c(-c2ccnc(Nc3ccc(C)c(S(=O)(=O)N4CCOCC4)c3)n2)s1
2: CNc1nc(C)c(-c2ccnc(Nc3cccc(S(N)(=O)=O)c3)n2)s1
Between 1 and 2 , whose recorded IC50 is greater? // caller expects the label of the chosen entry 1
(1: 1100 nM, 2: 40 nM)

---

Target Of Assay: Aurora A kinase (Homo sapiens)
Construct: purchased
Sequence (O14965 1-403): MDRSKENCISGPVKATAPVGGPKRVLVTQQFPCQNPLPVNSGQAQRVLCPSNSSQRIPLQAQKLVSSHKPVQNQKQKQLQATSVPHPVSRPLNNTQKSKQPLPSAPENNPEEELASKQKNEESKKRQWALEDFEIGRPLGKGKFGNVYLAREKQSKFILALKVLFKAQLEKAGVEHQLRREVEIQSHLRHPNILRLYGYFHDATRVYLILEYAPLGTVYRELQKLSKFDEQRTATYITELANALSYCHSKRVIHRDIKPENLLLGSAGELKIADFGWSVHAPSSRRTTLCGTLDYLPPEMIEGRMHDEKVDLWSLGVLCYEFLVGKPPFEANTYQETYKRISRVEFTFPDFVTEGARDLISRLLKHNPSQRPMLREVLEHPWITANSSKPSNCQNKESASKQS
Measurement Description: Aurora-A (human) kinase assay (Kemptide substrate)
Format: biochemical
Study Conditions: pIC50 is -log(IC50, M); 15 μM ATP; read-out: Kinase Inhibition pIC50 Aurora A kinase (converted)
Method: Aurora-A (human) kinase assay. This was achieved by measurement of incorporation of radioactive phosphate from ATP into Kemptide substrate (LRRASLG), upon phosphorylation by commercially obtained aurora-A kinase. […] After washing 5 times with 75 mM aq orthophosphoric acid and once in methanol, plates were dried, scintillant added and incorporated radioactivity measured in a scintillation counter (TopCount, Packard Instruments, Pangbourne, Berks, UK). […]
Parameter: IC50 (µM)

Answered examples (2):
Cc1nc(C)c(-c2ccnc(Nc3cccc(CNS(=O)(=O)C(F)(F)F)c3)n2)s1
0.2
CCNc1nc(C)c(-c2ccnc(Nc3ccc(N4CCNCC4)cc3)n2)s1
0.0794

I: CCNc1nc(C)c(-c2ccnc(Nc3cccc(S(=O)(=O)NCCOC)c3)n2)s1
II: Cc1nc(C)c(-c2ccnc(Nc3ccc(CN4CCOCC4)cc3)n2)s1
Of I and II , whose reported IC50 is numerically smaller? // caller expects the label of the chosen entry II
(II: 0.1 µM, I: 0.158 µM)

---

Target Of Assay: Aurora A kinase (Homo sapiens)
Construct: purchased
Measurement Description: Aurora-A (human) kinase assay (Kemptide substrate)
Assay type: biochemical
Study Conditions: pIC50 is -log(IC50, M); 15 μM ATP; read-out: Kinase Inhibition pIC50 Aurora A kinase (converted)
Parameter: IC50 (nM)

1: Cc1nc(N(C)c2cc(Cl)cc(Cl)c2)sc1-c1ccnc(Nc2ccc(N3CCOCC3)c(Cl)c2)n1
2: Cc1nc(NCCc2ccccc2)sc1-c1ccnc(Nc2ccc(N3CCOCC3)cc2)n1
3: Cc1cc(Nc2nccc(-c3sc(CO)nc3C)n2)ccc1N1CCOCC1
4: CCNc1nc(C)c(-c2ccnc(Nc3cccc(CNS(C)(=O)=O)c3)n2)s1
Form: Sort by [IC50] Order [ ascending ] // list labels; follow requested order 4, 3, 1, 2
(4: 31.6 nM, 3: 50.1 nM, 1: 100 nM, 2: 200 nM)

---

Each entry below carries its measured IC50, system: protein kinases (panel of Table 4) (Homo sapiens, UniProt Q96GD4).
Sequence (Q96GD4 whole entry): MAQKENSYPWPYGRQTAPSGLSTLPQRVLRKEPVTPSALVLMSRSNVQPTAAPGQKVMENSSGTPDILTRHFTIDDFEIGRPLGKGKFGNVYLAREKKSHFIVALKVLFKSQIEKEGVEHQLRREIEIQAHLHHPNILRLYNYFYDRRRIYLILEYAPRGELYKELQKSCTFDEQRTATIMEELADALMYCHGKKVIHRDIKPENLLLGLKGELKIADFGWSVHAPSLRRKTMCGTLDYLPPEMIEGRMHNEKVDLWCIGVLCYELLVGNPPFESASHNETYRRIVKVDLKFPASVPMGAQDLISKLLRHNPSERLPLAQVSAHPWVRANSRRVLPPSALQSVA
Parameter: IC50 (nM)

CCNc1nc(C)c(-c2ccnc(Nc3ccc(N4CCNCC4)cc3)n2)s1
16

1: CNc1nc(C)c(-c2ccnc(Nc3cccc(S(N)(=O)=O)c3)n2)s1
2: COCCNS(=O)(=O)c1cccc(Nc2nccc(-c3sc(N)nc3C)n2)c1
Between 1 and 2 , whose recorded IC50 is greater? // caller expects the label of the chosen entry 2
(2: 110 nM, 1: 20 nM)

---

Target Of Assay: CDK4-cyclin D1 (Homo sapiens, UniProt P11802)
Sequence (P11802 whole entry): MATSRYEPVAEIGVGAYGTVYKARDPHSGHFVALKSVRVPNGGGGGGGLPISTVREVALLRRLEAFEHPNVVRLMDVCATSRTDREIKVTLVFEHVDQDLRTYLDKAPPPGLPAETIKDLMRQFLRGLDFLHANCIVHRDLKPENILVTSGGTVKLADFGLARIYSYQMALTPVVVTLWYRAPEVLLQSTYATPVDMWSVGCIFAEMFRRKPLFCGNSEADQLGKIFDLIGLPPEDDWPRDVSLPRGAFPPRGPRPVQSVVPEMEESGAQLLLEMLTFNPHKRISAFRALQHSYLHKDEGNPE
Sequence (P24385 whole entry partner): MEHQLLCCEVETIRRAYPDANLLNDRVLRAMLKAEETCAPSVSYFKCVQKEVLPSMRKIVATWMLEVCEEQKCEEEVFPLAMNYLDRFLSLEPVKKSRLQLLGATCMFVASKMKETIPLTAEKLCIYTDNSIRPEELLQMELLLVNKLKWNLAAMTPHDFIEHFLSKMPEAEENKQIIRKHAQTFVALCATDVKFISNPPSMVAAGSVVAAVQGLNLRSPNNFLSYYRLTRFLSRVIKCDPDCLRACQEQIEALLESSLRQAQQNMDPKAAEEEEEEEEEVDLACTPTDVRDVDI
Measurement Description: Kinase assay (radioactive phosphate incorporation), CDK4-cyclin D1
Assay type: biochemical
Study Conditions: read-out: Kinase Inhibition pIC50 CDK4-cyclin D1 (converted)
Parameter: IC50 (nM)

Answered examples (2):
Cc1nc(C)c(-c2ccnc(Nc3cccc(CNS(C)(=O)=O)c3)n2)s1 [Compound 49]
1000
CNc1nc(C)c(-c2ccnc(Nc3cccc(S(C)(=O)=O)c3)n2)s1 [Compound 27]
158

P: CCNc1nc(C)c(-c2ccnc(Nc3cccc(S(=O)(=O)NCCO)c3)n2)s1 [Compound 75]
Q: Cc1nc(C)c(-c2ccnc(Nc3cccc(S(C)(=O)=O)c3)n2)s1 [Compound 4]
R: CC(=O)NCc1ccc(Nc2nccc(-c3sc(N)nc3C)n2)cc1 [Compound 16]
List by increasing IC50. // list labels; follow requested order P, R, Q
(P: 126 nM, R: 501 nM, Q: 1260 nM)

The reported measurements were obtained from patent US20090137572A1.
